Source listed as PubChem BioAssay (EPA / NIEHS).

Read-out: 3-Hydroxy-3-Methylglutaryl-CoA Synthase 2 (HMGCS2), HMGCS2 (gene 3158)
Protocol text: LTEA_HepaRG_HMGCS2: Life Technologies and Expression Analysis (LTEA) Assay for 3-Hydroxy-3-Methylglutaryl-CoA Synthase 2 (HMGCS2) using HepaRG (AID 2283504)
Condition parameters: mRNA level, 48 h; actives raise or lower the signal
Activity calls are given as the source filed them. The calls were made as follows: active = hit-call score of the fitted dose curve at least 0.9, where 1 is the maximum; inactive = score below 0.9.
Property label: AC50

O=c1c(-c2ccc(O)cc2)coc2cc(O)cc(O)c12; inactive
CCN(Cc1cccnc1)C(=O)c1cccc(Cl)c1[C@]1(C)C(=O)N(Cc2ccc(OC)cc2OC)c2ccc(Cl)cc21; 21.8 µM (active)
CCCCCCCCN(C)CCCCCCCC; inactive

----------
Test system: DIO2 (gene 1734)
Protocol text: CCTE_GLTED_hDIO2: CCTE's human Deiodinase 2 (DIO2) Inhibition Assay, Great Lakes Toxicology and Ecology Division (GLTED) Lab (AID 2284050)
Calls of active or inactive are those of the source. The calls were made as follows: active = hit-call score of the fitted dose curve at least 0.9, where 1 is the maximum; inconclusive = response in the unintended direction; inactive = score below 0.9.
Property label: AC50

CN(C)c1ccc(C(=C2C=CC(=[N+](C)C)C=C2)c2ccc(N(C)C)cc2)cc1; 134 µM (active)

// batch mode: one AC50 value per listed entry
1. OC12N=C(c3ccccc3)SC1Cc1cc(Cl)ccc12 (stereo unspecified)
2. CC(C)(C)c1cc(/C=C2\SC(N)=NC2=O)cc(C(C)(C)C)c1O
3. NCc1cccc(C2CCN(C(=O)c3ccc(C#Cc4ccccc4F)o3)CC2)c1
4. CCCCCCCCOC(=O)c1cc(O)c(O)c(O)c1
5. O=CCCCC=O

["72.5 µM (active)", "30.3 µM (active)", "30.6 µM (active)", "143 µM (active)", "91.3 µM (active)"]

----------
Read-out: Heat shock 70 kDa protein 1 (HSPA1A), gene 3303
Protocol text: LTEA_HepaRG_HSPA1A: Life Technologies and Expression Analysis (LTEA) Assay for Heat shock 70 kDa protein 1 (HSPA1A) using HepaRG (AID 2283502)
Condition parameters: mRNA level, 48 h; actives raise or lower the signal
Calls of active or inactive are those of the source. The calls were made as follows: active = hit-call score of the fitted dose curve at least 0.9, where 1 is the maximum; inactive = score below 0.9.
// one of T for active, F for inactive, no free text

c1ccc(C[n+]2cccc3ccccc32)cc1; T
O=C1O[C@H]([C@@H](O)CO)C(O)=C1O; F
Cc1cc2c(cc1C(F)(F)F)N(C(=O)Nc1ccc(Oc3cccnc3C)nc1)CC2; T
O=C1CCC(C2CCCCC2)CC1; F
CCCCCCCCN(C)CCCCCCCC; F

Switching to the query record.
Outcome logged for O=C(O)c1ccccc1-n1cc(C(=O)O)c(=O)c2cc(Nc3c(F)cc(F)cc3Cl)c(Cl)cc21 in this assay: F

----------
Read-out: Macrophage colony-stimulating factor (MCSF), CSF1 (gene 1435)
Protocol text: BSK_CASM3C_MCSF: BioMAP Diversity Plus: CASM3C Assay for Macrophage colony-stimulating factor (MCSF) Biomarker Activity (AID 2283044);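 also: M-CSF protein amount quantified by ELISA after 24 h exposure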
Condition parameters: primary human coronary artery smooth muscle cells; actives raise or lower the signal
The source made the active and inactive calls. The calls were made as follows: active = hit-call score of the fitted dose curve at least 0.9, where 1 is the maximum; inactive = score below 0.9.
// one of active, inactive, no free text

Before answering, review these 5 worked examples.
CCCOC(=O)c1cc(O)c(O)c(O)c1; inactive
CN(C[C@@H](CC[N+]12CCC(C3CCCCC3)(CC1)CC2)c1ccc(Cl)c(Cl)c1)C(=O)c1cc(C(F)(F)F)cc(C(F)(F)F)c1; active
CCCCCCCCN(C)CCCCCCCC; inactive
CCCCCCCCCC(=O)O; inactive
O=C(Nc1ccc(Cl)cc1)Nc1ccc(Cl)c(Cl)c1; active

Outcome logged for CCCCCCCC[Si](OCC)(OCC)OCC in this assay: inactive
